Reference for the values: the supplement of paper PMC10724198

Test system: Saccharomyces cerevisiae;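 further: PSI is a weighted mean of sequencing reads over stability bins, variants kept only with over 10 reads, mCherry proximal and sfGFP distal, peptide attached via GGGS linker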
Assay: protein stability index of tFT-peptide fusion (C-terminal peptide) (PSI (0-1 scale)); higher = more stable (slower turnover)
Details: genetic background: wild type; temperature: 30 C
QUANTITY NAME: protein stability index

SPPSSPHPPPRT	0.693
PCPGSPPCHFYF	0.691
LPQAVPCRTPPL	0.679
HYRLPLPPASPA	0.701
LSPLPPDLPDLP	0.699
RGFGSLSKPMCH	0.711
LPLSSLLRPRHS	0.684
GMWFRIGHCRFA	0.684
PGSILFRGVGAS	0.691
KKTKKKRGEYKK	0.714
PPWPPLVQPVSL	0.708
CPVFYRYCHPPH	0.707
GGNSRASAVKGA	0.702
VCSGPKSPATQQ	0.695
AGGAVGEAGSEG	0.694
DAPEKQDKHINE	0.719
PRRHLALLISEG	0.687
PPLPFSRSPSSL	0.69
SFFTLDRHPSYD	0.715
GRNAGPSLLPAL	0.684
TYTELSFKNCVE	0.713
KNNITTTNKRMK	0.679
TVACILPLAQSL	0.706
AFFYLRGQESLL	0.688
SFVSRSRLAEVD	0.682
ENGRRTDKKVST	0.687
